# protocol.notes: in vivo
# condition.info: mouse, in vivo, iv, total radioactivity, T/NT ratio, tumor/kidneys
property.measured: tissue to tissue ratio at 2 h
API doc: respond with a numeric literal and nothing else, no unit.

Per the record, CSCC[C@H](NC(=O)[C@H](CC(C)C)NC(=O)[C@H](Cc1c[nH]cn1)NC(=O)CNC(=O)[C@@H](NC(=O)[C@H](C)NC(=O)[C@H](Cc1c[nH]c2ccccc12)NC(=O)[C@H](CCC(N)=O)NC(=O)CCCCCNC(=O)CC[C@H](NC(=O)COCCOCCOCCNC(=O)c1ccc([18F])cc1)C(=O)NCCCC[C@@H]1NC(=O)[C@@H](Cc2ccc(O)cc2)NC(=O)[C@H](CC(=O)O)NC(=O)CNC(=O)[C@H](CCCNC(=N)N)NC1=O)C(C)C)C(N)=O [^18F-FB-PEG3-RGD-BBN] has tissue to tissue ratio at 2 h of 1.44

###

# protocol.notes: in vivo
# Parameters: species or system mice
# condition.info: male, athymic nude, mouse, 0.74 MBq, total radioactivity, kidney uptake, biodistribution
property.measured: tissue uptake at 0.5 h (%ID/g)
Answer with a number only, understood to be in %ID/g.

Just so you know, measured tissue uptake at 0.5 h for CSCC[C@H](NC(=O)[C@H](CC(C)C)NC(=O)[C@H](Cc1c[nH]cn1)NC(=O)CNC(=O)[C@@H](NC(=O)[C@H](C)NC(=O)[C@H](Cc1c[nH]c2ccccc12)NC(=O)[C@H](CCC(N)=O)NC(=O)CCCCCNC(=O)CC[C@H](NC(=S)Nc1ccc(C[C@H]2CN(CC(=O)O)CCN(CC(=O)O)CCN2CC(=O)O)cc1)C(=O)NCCCC[C@@H]1NC(=O)[C@@H](Cc2ccc(O)cc2)NC(=O)[C@H](CC(=O)O)NC(=O)CNC(=O)[C@H](CCCNC(=N)N)NC1=O)C(C)C)C(N)=O [^68Ga-NOTA-RGD-BBN, metal not drawn] came out at 8.76

###

The compounds listed here are annotated with their tissue uptake at 4 h.
# protocol.notes: in vivo
# condition.info: male, athymic nude, mouse, in vivo, iv, 5.5 MBq, total radioactivity, Tumor uptake
The figure you give is taken to be in %ID/g; do not add the unit.

* N=C(N)NCCC[C@@H]1NC(=O)[C@H](CCCCNC(=S)Nc2ccc(C[C@H]3CN(CC(=O)O)CCN(CC(=O)O)CCN3CC(=O)O)cc2)NC(=O)[C@@H](Cc2ccc(O)cc2)NC(=O)[C@H](CC(=O)O)NC(=O)CNC1=O [^64Cu-NOTA-RGD, metal not drawn, reference compound] | 0.66

Note to self: tissue uptake at 4 h recorded for CSCC[C@H](NC(=O)[C@H](CC(C)C)NC(=O)[C@H](Cc1c[nH]cn1)NC(=O)CNC(=O)[C@@H](NC(=O)[C@H](C)NC(=O)[C@H](Cc1c[nH]c2ccccc12)NC(=O)[C@H](CCC(N)=O)NC(=O)CCCCCNC(=S)Nc1ccc(C[C@H]2CN(CC(=O)O)CCN(CC(=O)O)CCN2CC(=O)O)cc1)C(C)C)C(N)=O [^64Cu-NOTA-BBN, metal not drawn, reference compound] was 0.56

Sure, the documented tissue uptake at 4 h for CSCC[C@H](NC(=O)[C@H](CC(C)C)NC(=O)[C@H](Cc1c[nH]cn1)NC(=O)CNC(=O)[C@@H](NC(=O)[C@H](C)NC(=O)[C@H](Cc1c[nH]c2ccccc12)NC(=O)[C@H](CCC(N)=O)NC(=O)CCCCCNC(=O)CC[C@H](NC(=S)Nc1ccc(C[C@H]2CN(CC(=O)O)CCN(CC(=O)O)CCN2CC(=O)O)cc1)C(=O)NCCCC[C@@H]1NC(=O)[C@@H](Cc2ccc(O)cc2)NC(=O)[C@H](CC(=O)O)NC(=O)CNC(=O)[C@H](CCCNC(=N)N)NC1=O)C(C)C)C(N)=O [^64Cu-NOTA-RGD-BBN, metal not drawn] is 2.21

Form: compound = CSCC[C@H](NC(=O)[C@H](CC(C)C)NC(=O)[C@H](Cc1c[nH]cn1)NC(=O)CNC(=O)[C@@H](NC(=O)[C@H](C)NC(=O)[C@H](Cc1c[nH]c2ccccc12)NC(=O)[C@H](CCC(N)=O)NC(=O)CCCCCNC(=O)CC[C@H](NC(=O)CN1CCN(CC(=O)O)CCN(CC(=O)O)CCN(CC(=O)O)CC1)C(=O)NCCCC[C@@H]1NC(=O)[C@@H](Cc2ccc(O)cc2)NC(=O)[C@H](CC(=O)O)NC(=O)CNC(=O)[C@H](CCCNC(=N)N)NC1=O)C(C)C)C(N)=O [^64Cu-DOTA-RGD-BBN, metal not drawn] ; tissue uptake at 4 h = 1.05

Values from patent US20100015058A1
